Target: HSD17B13 enzyme (Homo sapiens)
Construct: His; made in house; host or cells: E. coli
Sequence (Q7Z5P4 20-300): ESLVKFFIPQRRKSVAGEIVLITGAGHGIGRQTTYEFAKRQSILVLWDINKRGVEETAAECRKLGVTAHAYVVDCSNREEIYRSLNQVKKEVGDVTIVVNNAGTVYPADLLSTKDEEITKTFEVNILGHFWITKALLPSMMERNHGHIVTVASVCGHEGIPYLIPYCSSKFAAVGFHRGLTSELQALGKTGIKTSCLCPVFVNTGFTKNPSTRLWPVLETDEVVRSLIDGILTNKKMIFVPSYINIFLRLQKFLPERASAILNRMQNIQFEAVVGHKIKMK
Assay: NADH detection assay (fluorescence based LTB3 assay) for HSD17B13 activity
Type: biochemical
Details: substrate 25 μM LTB3, 3 mM NAD+, 125 nM HSD17B13 enzyme, 1 hour at 26.5° C.
pIC50: −log10 of the molar value.
measured.metric: pIC50

Observe how each entry below is paired with its result.
Oc1cc(Oc2cccc(-c3ccccc3Cl)n2)ccc1F: ≥ 5.30
O=S(=O)(Nc1cccc(Oc2cccc(-c3cccc(O)c3F)n2)c1)C1CC1: < 4.52

Using the record for "Oc1cc(Oc2cccc(-c3ccc(F)cc3F)n2)ccc1F" , report its pIC50. 5.00 to 5.30

Next record, please: "NS(=O)(=O)c1ccc(-c2cccc(Oc3ccc(F)c(O)c3)n2)cc1" 4.52 to 5.00

Can you check "COc1cc(Oc2ccnc(-c3cccc(O)c3F)n2)ccc1F" next? < 4.52

What about this compound? "Oc1cc(Oc2cccc(-c3ccc(Cl)c(C(F)(F)F)c3)n2)ccc1F" 4.52 to 5.00

Now try "COc1ccc(Oc2cccc(-c3cccc(O)c3F)n2)cc1C(=O)O" . < 4.52

Can you check "O=c1ccc(-c2cccc(Oc3ccc(F)c(O)c3)n2)cn1C(F)F" next? < 4.52

# iterate: "Oc1cc(Oc2cccc(-c3ccc(OCc4ccccc4)cc3)n2)ccc1F" ≥ 5.30

Now this one: "Oc1cc(Oc2cccc(-c3ccc(O)c(F)c3)n2)ccc1F" ≥ 5.30

Next: "O=C1Cc2ccc(Oc3cccc(-c4cccc(O)c4F)n3)cc2N1" < 4.52

Please give the result for "NC(=O)c1ccc(-c2cccc(O)c2F)nc1Oc1ccc(F)c(O)c1" too. ≥ 5.30

Here is the next compound: "CC(=O)Nc1nc2cc(-c3cccc(Oc4ccc(F)c(O)c4)n3)ccc2s1" < 4.52

---

Target: HSD17B13 enzyme (Homo sapiens)
Construct: His; made in house; host or cells: E. coli
Sequence (Q7Z5P4 20-300): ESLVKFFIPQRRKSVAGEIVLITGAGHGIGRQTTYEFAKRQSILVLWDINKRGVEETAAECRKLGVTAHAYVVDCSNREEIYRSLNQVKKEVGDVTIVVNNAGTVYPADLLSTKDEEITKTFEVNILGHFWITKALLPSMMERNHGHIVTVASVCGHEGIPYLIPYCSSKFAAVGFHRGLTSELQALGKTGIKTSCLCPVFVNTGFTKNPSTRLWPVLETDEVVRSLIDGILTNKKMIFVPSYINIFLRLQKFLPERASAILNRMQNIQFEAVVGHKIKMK
Assay: NADH detection assay (fluorescence based LTB3 assay) for HSD17B13 activity
Type: biochemical
Settings: substrate 25 μM LTB3, 3 mM NAD+, 125 nM HSD17B13 enzyme, 1 hour at 26.5° C.
Reported IC50 values for a set of compounds

Some solved entries appear below for comparison.
CN1CCN(S(=O)(=O)c2cccc(-c3cccc(Oc4ccc(F)c(O)c4)n3)c2)CC1: 5 to 10 µM
O=S1(=O)CCN(c2ccc(-c3cccc(Oc4ccc(F)c(O)c4)n3)cc2)CC1: ≤ 5 µM
Oc1cc(Oc2cccc(-c3ccc(F)c(Cl)c3)n2)ccc1F: 5 to 10 µM

Can you share its IC50? I mean this compound: "O=c1[nH]c2ccc(-c3cccc(Oc4ccc(F)c(O)c4)n3)cc2[nH]1" ≤ 5 µM

"Oc1cccc(-c2cccc(Oc3ccc(F)c(O)c3)n2)c1" ? 10 to 30 µM

Value source: patent US12643858B2
